System: LOX IMVI melanoma
Assay: NCI tumour cell line growth inhibition, 48 h
Where a SMILES comes first, the peptide text is derived from it. [ ]: non-standard residue; d: D form. The star is where a group is joined. ξ: configuration not given here. NMeF = CN[CH](Cc1ccccc1)C(=O)O; ξNMe2Val = CC(C)C(C(=O)*)N(C)C; NMeV = CN[CH](C(=O)O)C(C)C; OtBu = CC(C)(C)O*
TGI of 20 µM or higher: class 1. Under 20 µM: class 0.

Solved cases below.
* CC[C@]12C=CCN3CC[C@@]4(c5cc(Br)c(OC)cc5N(C)[C@H]4[C@@](O)(C(=O)NC(Cc4c[nH]c5ccccc45)C(=O)OC)[C@@H]1O)[C@@H]32 (stereo partly drawn) | class 1
* C=C(C)CCC1C=[N+]([O-])OC(C)(C)C1(C)C (stereo not drawn) | class 1
* COC(=O)C1(Cc2ccccc2)Cc2cc3c(cc2C1O)CCC3 (stereo not drawn) | class 1
* COc1ccc2c(c1)/C(=N/OC(C)=O)c1c-2c(OC)nc2ccccc12 | class 1
* COc1ccc2c(c1)/c(=C/C#N)c1c3ccccc3[n+](C)n21 | class 1
* CC(C)C(C(=O)N(C)C(Cc1ccccc1)C(=O)N(C)C(C(=O)N(C)C(C(=O)N1CCCC1C(=O)OC(C)(C)C)C(C)C)C(C)C)N(C)C (stereo not drawn) (ξNMe2Val-[NMeF][NMeV][NMeV]P-OtBu; configuration not given here) | class 1
* Fc1ccc(C(OCCN2CCC3CCC(C2)N3C/C=C/c2cccs2)c2ccc(F)cc2)cc1 (stereo not drawn) | class 0
* O=c1[nH]c2ccc(CC(=S)N3CCOCC3)cc2o1 | class 1
* S=C(SSC(=S)N1CCCCC1)N1CCCCC1 | class 0
* CN(C)CC1CCC/C(=C\c2ccc(OC(=O)/C=C/c3ccc(Cl)cc3)cc2)C1=O (stereo not drawn) | class 0

Hi, just wondering whether `Cc1c(C(N)=O)sc2nc(C)n(/N=c3\scc(-c4ccccc4)n3Cc3ccccc3)c(=O)c12` shows TGI of 20 µM or higher.
class 1

Please indicate if the recorded TGI for `CCCCCCCCCCCC[N+]12CC[N+](C)(CC1)CC2` meets or exceeds 20 µM.
class 1

* * *

Test system: SW-620 colon
Assay: NCI tumour cell line growth inhibition, 48 h; in the data active means GI50 below about 0.43 µM; inactive means the rest
Permitted responses: active, inactive

* CCc1c(C)c2cc(-n3c(-c4ccc(OC)cc4)csc3=N)c(O)c(C)c2oc1=O | inactive
* COc1ccc2c(c1)C(=O)c1c-2n(CCCN(C)C)c(=O)c2cc([N+](=O)[O-])ccc12 | active
* O=C1Cc2cc(CCN3CCNCC3)c(Cl)cc2N1 | inactive
* S=C(SSC(=S)N1CCCCC1)N1CCCCC1 | inactive
* CC(C)(C)[Si](C)(C)OC1[C@@H](COC(=O)NC(=O)CCl)O[C@@H](n2cnc3c(N)ncnc32)[C@H]1O[Si](C)(C)C(C)(C)C (some centres undefined) | inactive

Dear colleague, could you share the recorded outcome for `COc1ccc2c(c1)/C(=N/OC(C)=O)c1c-2c(OC)nc2ccccc12` when you have a moment?
inactive

Short answer needed: outcome of this test for `O=C1C(=C([O-])c2ccccc2)C(=O)c2ccccc21.O=C1C(=C([O-])c2ccccc2)C(=O)c2ccccc21.[Ni+2]` ?
inactive

In this assay, the call recorded for CC1=C(C(=O)Nc2ccc(Cl)c(Cl)c2)C(c2cccc(Cl)c2)NC(=S)N1 (centres undefined) was what?
inactive

Each molecule tested received a call. Report the one for `C=C(C)C(=O)Nc1ccc(-c2c(-c3ccc(Oc4nccc(C)n4)c(F)c3)c3c(N)ncnc3n2C)cc1` .
inactive

* * *

Tested on: SF-539 CNS
Assay: NCI tumour cell line growth inhibition, 48 h
Give true (1) when the value for TGI is at least 4 µM. Give false (0) when it is less.

These solved cases illustrate the format of a correct answer.
• N#COc1ccc(Oc2ccc(OC#N)cc2)cc1 = true (1)
• CSc1ccc2c(c1)c(CCN)c(C)n2Cc1ccccc1Cl = false (0)
• O=S(=O)(c1ccccc1)c1ccc(-c2nc(-c3ccc4c(c3)Sc3ccccc3S4)cs2)cc1 = true (1)

Does the compound `Cn1cc2c3ccccc3nc-2c2ccccc21` have recorded TGI that is 4 µM or more?
false (0)

In plain terms: is recorded TGI at least 4 µM for `Cc1cc(Br)ccc1N=Nc1c(C)nn(-c2ccccc2)c1-c1ccccc1` ?
true (1)

Entry `Cc1cc(N(CCNc2ccnc3cc(Cl)ccc23)Cc2ccc3c(c2)OCO3)nc(N2CCCC2)n1` : is its TGI no less than 4 µM?
false (0)

* * *

Test system: K-562 leukemia
Experiment: NCI tumour cell line growth inhibition, 48 h; in the data active means GI50 below about 0.43 µM; inactive means the rest
Hi! Could you answer with just one of these? 1 (yes) (active), 0 (no) (inactive)

State the result this test recorded for `CC1=C[C@@H]2c3c(c(O)c(O)c4oc5cc(O)cc(O)c5c(=O)c34)[C@@H](c3cc(O)c(O)c4oc5cc(O)cc(O)c5c(=O)c34)[C@@H]2C(C)(C)C1` .
0 (no)

Look up the recorded call for `CCS(=O)(=O)c1ccc(OC)c(Nc2ncc(-c3cccc(F)c3)o2)c1` in this test.
0 (no)

* * *

Tested on: UO-31 renal
Test: NCI tumour cell line growth inhibition, 48 h
// reported GI50 per item

Past entries and their recorded results:
• Cc1ccc(-c2nc3sc(C)cn3c2/C=C2\C(=O)Nc3ccc(Cl)cc32)cc1 = 28.1 µM
• O=C(Oc1c(Cl)cc(Cl)cc1Cl)c1ccccc1Nc1ccnc(C(F)(F)F)c1 = 41 µM

// moving on: another record for GI50
Supply reported GI50 belonging to this compound: `CCCCCCCCN=C(NCCCCCCCC)SCc1cccc2ccccc12`
1.27 µM

* * *

System: OVCAR-8 ovarian
Experiment: NCI tumour cell line growth inhibition, 48 h
endpoint name: TGI

* C=C1CCOC2(C(O)C(C)(O)CO)NC(=O)C1(O)NC2=O (configuration not stated) | > 100 µM

Report measured TGI; entry is `O=C1[C@@H]2C(c3ccccc3[N+](=O)[O-])=NO[C@@H]2C(=O)N1c1ccc(Cc2ccc(N3C(=O)[C@H]4C(c5ccccc5[N+](=O)[O-])=NO[C@H]4C3=O)cc2)cc1`
> 100 µM

Return TGI (reported value) for this compound: `Cc1cc(Br)ccc1N=Nc1c(C)nn(-c2ccccc2)c1-c1ccccc1`
> 100 µM

Find the measured TGI of `COc1ccc(-c2nnc3n(C)c4ccccc4n3c2=O)cc1` and report it.
> 100 µM

Return reported TGI. Input compound: `CCOC(=O)/C=C1/SC(=Nc2ccc(C#N)cc2)N(Cc2ccco2)C1=O`
7.94 µM

Tell me its TGI given CN(CCCCCl)P(=O)(OCc1ccc([N+](=O)[O-])o1)OCC1OC(n2cc([N+](=O)[O-])c(=O)[nH]c2=O)CC1O (configuration not stated) as the entry.
> 100 µM

State, in one line, measured TGI of `CC#COS(=O)(=O)c1ccc(C)cc1`
> 100 µM

Report TGI, nothing else, for this compound: CCOC(=O)N1CCC2(CC1)C[C@@](C(C)=O)(c1ccccc1)C(C)O2 (some centres not stated)
> 100 µM

* * *

TGI by entry:
System: HCT-116 colon
Assay: NCI tumour cell line growth inhibition, 48 h

See these solved cases before continuing.
- C[C@]12CCC(=O)C[C@@H]1CC[C@@H]1[C@@H]2CC[C@]2(C)[C@@H](OC(=O)N(CCCl)N=O)CC[C@@H]12: > 35.1 µM
- COc1ccc(Nc2nc(N)c(C(=O)c3ccc(Cl)cc3)s2)cc1: 6.64 µM

Read the next record carefully.
Check the records and state TGI for COC1/C(=C\C(C)=O)c2ccccc2N1C(C)=O (stereo not drawn)
> 100 µM

* * *

Measured TGI, listed per entry for reference.
System: SNB-19 CNS
Assay: NCI tumour cell line growth inhibition, 48 h

* Cc1c(C(N)=O)sc2nc(C)n(/N=c3\scc(-c4ccccc4)n3Cc3ccccc3)c(=O)c12 | > 100 µM
* CCN(C(=O)N[C@H](C(=O)N[C@@H](CSC)C(=O)N[C@@H](C)C(=O)OC)C(C)C)c1ccccc1 | 33.4 µM
* O=S(O)c1cc(Cl)c(O)c(Cl)c1 | > 100 µM

Give the reported TGI for this compound. `O=S(=O)(/N=C(\NO)Nc1ccc(Cl)cc1)c1cc2ccccc2s1`
31.2 µM

Return value of TGI for input COc1cccc2c1C(=O)c1c(O)c3c(c(O)c1C2=O)C[C@@](O)(C(=O)CO)CC3OC1CC(NCCOCC(OC(C)=O)OC(C)=O)C(O)C(C)O1 (stereo partly specified) , no commentary.
> 100 µM

Input `O=C(N/C(=C\c1ccc(/C=C(\NC(=O)c2ccccc2)c2nc3c(O)nc(S)nc3[nH]2)cc1)c1nc2c(O)nc(S)nc2[nH]1)c1ccccc1` , output reported TGI.
> 100 µM
